// provenance: PubChem BioAssay (NCI)

System: OVCAR-8 ovarian
methodDescription: NCI tumour cell line growth inhibition, 48 h
Recorded TGI values for a group of compounds are listed next.

1) COc1cc2c(cc1O)-c1c(cnn1-c1ccc([N+](=O)[O-])cc1)CCC2 | 50.3 µM
2) O=C1CS(=O)(=O)C(c2cccc(Oc3ccccc3)c2)N1c1cccc(Cl)c1 (configuration not stated) | 82.8 µM
3) N#Cc1cccc(OCc2nc(N)nc(N)c2-c2ccc(Cl)c(Cl)c2)c1 | > 100 µM

# compound O=S(=O)(N/N=C1\CC2CCC1C2)c1ccccc1 (configuration not stated) ; its TGI = > 100 µM

# compound CCN(CC)CCCC(C)Nc1ccnc2cc3ccccc3cc12 (configuration not stated) ; its TGI = 54.2 µM

# compound "Nc1ccc(-c2cssc2=S)cc1" ; its TGI = > 100 µM
